Data provenance: patent US20150266963A1

The following binders are shown together with reported koff values.
# STUDY_TARGET: T1, recombinant human CD70 (Flag-TNC-CD70) (human, UniProt P32970 39-193)
# T1 construct: extracellular domain; Captured by anti-Flag mAb in ELISA; as 'recombinant human CD70' immobilised on Biacore CM5 chips; TNC is for trimerisation; also called recombinant CD70; human recombinant CD70; not shown: Flag tag and TNC trimerisation domain
# T1 sequence (looked up): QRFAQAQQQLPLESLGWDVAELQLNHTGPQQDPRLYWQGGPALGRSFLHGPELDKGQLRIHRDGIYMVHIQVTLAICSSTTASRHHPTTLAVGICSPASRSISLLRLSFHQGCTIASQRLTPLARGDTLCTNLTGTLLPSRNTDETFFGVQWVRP
# ASSAY_OVERVIEW: Biacore; CD70 coated CM5 chip; Fab in periplasmic fraction
ASSAY_METRIC: koff (s⁻¹)

>  <BINDER>
39D5 Fab (Fab, V domains shown, Germlined 27B3 Fab, periplasmic fraction) VH: EVQLVESGGGLVQPGGSLRLSCAASGFTFSGYYMNWVRQAPGKGLEWVSDINNEGGTTYYADSVKGRFTISRDNAKNTLYLQMNSLRAEDTAVYYCVRDAGYSNHVPIFDSWGQGTTVTVAS VL: QTVVTQEPSLTVSPGGTVTLTCGVTSGSVTSDNFPTWYQQTPGQAPRLLIYNTNTRHSGVPDRFSGSILGNKAALTITGAQPEDESDYYCALFISNPSVEFGGGTQLTVLG

>  <UNIT_ABBREVIATION>
s⁻¹

>  <REPORTED>
0.00012

$$$$
>  <BINDER>
41D12 Fab (Fab, V domains shown, Germlined 27B3 Fab, periplasmic fraction) VH: EVQLVESGGGLVQPGGSLRLSCAASGFTFSVYYMNWVRQAPGKGLEWVSDINNEGGTTYYADSVKGRFTISRDNSKNSLYLQMNSLRAEDTAVYYCARDAGYSNHVPIFDSWGQGTLVTVSS VL: QAVVTQEPSLTVSPGGTVTLTCGLKSGSVTSDNFPTWYQQTPGQAPRLLIYNTNTRHSGVPDRFSGSILGNKAALTITGAQADDEAEYFCALFISNPSVEFGGGTQLTVLG

>  <UNIT_ABBREVIATION>
s⁻¹

>  <REPORTED>
0.00023

$$$$
>  <BINDER>
35G1 Fab (Fab, V domains shown, Germlined 27B3 Fab, periplasmic fraction) VH: EVQLVESGGGLVQPGGSVRLSCAASGFTFSVYYMNWVRQAPGKGLEWVSDINNEGGTTYYADSVKGRFTISRDNAKNTLYLQMNSLKPEDTAVYYCARDAGYSNHVPIFDSWGQGTLVTVAS VL: QTVVTQEPSFSVSPGGTVTLTCGLKSGSVTSDNFPTWYQQTPGQAPRLLIYNTNSRHSGVPDRFSGSILGNKAALTITGAQADDESDYFCALFISNPSVEFGGGTQLTVLG

>  <UNIT_ABBREVIATION>
s⁻¹

>  <REPORTED>
0.00023

$$$$
